Biological target: T1, human ADAMTS5 (human, UniProt Q9UNA0 262-622, limits assumed)
T1 construct: Octet and ELISA used 'recombinant human ADAMTS5'; also called recombinant human ADAMTS5; ADAMTS5 (R&D Systems 2198-AD)
T1 sequence: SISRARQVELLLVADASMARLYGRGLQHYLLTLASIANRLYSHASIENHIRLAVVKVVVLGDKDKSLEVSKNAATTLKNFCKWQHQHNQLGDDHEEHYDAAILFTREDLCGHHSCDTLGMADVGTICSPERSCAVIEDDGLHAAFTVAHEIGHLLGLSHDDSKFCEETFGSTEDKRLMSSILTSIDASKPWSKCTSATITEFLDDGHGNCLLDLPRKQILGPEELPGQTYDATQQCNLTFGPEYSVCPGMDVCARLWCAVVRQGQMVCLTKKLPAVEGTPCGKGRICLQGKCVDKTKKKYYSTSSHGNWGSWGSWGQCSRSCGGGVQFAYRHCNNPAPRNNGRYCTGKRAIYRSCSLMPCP
Test: Biacore, mAb from culture supernatant captured on anti-human IgG, ADAMTS5 (R&D 2198-AD) at 64 nM, 1:1 fit
Measured koff of individual entries
Quick note: give the figure in s⁻¹, leave out the unit.

Known koff results, listed for orientation:
* BPC1651 (antibody, human IgG1, kappa, V domains shown, Humanized, human gamma 1 / kappa; also called 7B4 H3L2) VH: EVQLVESGGGLVQPGGSLRLSCAASGFTSSDAWMDWVRQAPGKGLEWVAEIRNKANNHARHYAESVKGRFTISRDNAKNSLYLQMNSLRAEDTAVYYCTRTYYYGSSYGYCDVWGQGTLVTVSS VL: DIQMTQSPSSLSASVGDRVTITCRTSENIYSYLAWYQQKPGKAPQLLVYNAKTLAEGVPSRFSGSGSGTDFTLTISSLQPEDFATYYCQHHYGTPWTFGQGTKLEIKR | 0.00315
* BPC1652 (antibody, human IgG1, kappa, V domains shown, Humanized, human gamma 1 / kappa; also called 7B4 H4L2) VH: EVQLVESGGGLVQPGGSLRLSCAASGFTSSDAWMDWVRQAPGKGLEWVAEIRNKANNHARHYAESVKGRFTISRDDAKNSLYLQMNSLRAEDTAVYYCTRTYYYGSSYGYCDVWGQGTLVTVSS VL: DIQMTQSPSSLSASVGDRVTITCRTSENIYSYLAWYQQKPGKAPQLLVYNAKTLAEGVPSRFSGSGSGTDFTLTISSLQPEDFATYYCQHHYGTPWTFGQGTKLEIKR | 0.00212

The binder BPC1650 (antibody, human IgG1, kappa, V domains shown, Humanized, human gamma 1 / kappa; also called 7B4 H2L2) VH: EVQLVESGGGLVQPGGSLRLSCAASGFTSSDAWMDWVRQAPGKGLEWVAEIRNKANNHARHYAESVKGRFTISRDNAKNSLYLQMNSLRAEDTAVYYCARTYYYGSSYGYCDVWGQGTLVTVSS VL: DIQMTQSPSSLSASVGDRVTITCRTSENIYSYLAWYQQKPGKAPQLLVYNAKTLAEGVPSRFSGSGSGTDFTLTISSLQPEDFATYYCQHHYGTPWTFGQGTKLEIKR showed koff equal to 0.00343

Reference for the values: patent US20120095193A1
